Value source: the supplement of paper PMC6555819

- Test system: PPARg:RXRa IVT, anti-PPARg (NR concentration 270 nM, RXRa partner concentration 90 nM)
- Assay notes: PBM binding z-score (relative to random genomic background probes); higher = stronger binding; sequences stand for … in GC…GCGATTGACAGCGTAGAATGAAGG

| Seq text | PBM binding z-score |
| --- | --- |
| CGTCAAAGTTCAACTAAGGTGACGTAAAGCACGC | 2.53 |
| TTACCAAGGTGAGCTGAGGTCTTTGATCCAACTC | 1.72 |
| AGAACGAGGGCACGCTGAGTAGATAGCAGAGTAG | 3.83 |
| GGAACGAGGGCAAACTTGATAGCATCTGTCGACG | 3.21 |
| ATCTCTAGGTAAAGTTCAGTGCAAGATCGATAGA | 2.81 |
| ATCTCTAGGTTACCAAGTTCAGTGAATGCCGAAC | 4.07 |
| TATTGTAGATCAAGCAGGTTAAGAAAGCCTGAGT | 1.02 |
| TCTATTAGCTGATTAGGGCAACCGAAACAGCGGA | 1.49 |
| CCTATTAGTTGACCATAAGGCCAACCGAAGCTCG | 0.487 |
| TCTGCTAGGGCAGTTGGTCAGCTAACGAGCTGCC | 0.996 |
| TCTGCTAGGTCAACGATGGTGAGCTAATCTGCTA | 4.11 |
| CCTAATAGTTGACCATAAGGGCAACCGAAGCTCG | 0.473 |

====

- Test system: RARa homodimer (NR concentration 270 nM)
- Assay notes: PBM binding z-score (relative to random genomic background probes); higher = stronger binding; sequences stand for … in GC…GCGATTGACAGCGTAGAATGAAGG

| Seq text | Target of assay | PBM binding z-score |
| --- | --- | --- |
| CCTCGGAGGATAACAGGAGGTCAGAGCTGCCAGA | RARa homodimer (NR concentration 270 nM) | 0.565 |
| TCTCGGAAGACACGAAGGTCAGAGCTTTCCAGAG | RARa homodimer (NR concentration 270 nM) | -0.631 |
| TCTTGGAGATCAATAGAGGTTAAGAAAGTGCGCT | RARa homodimer (NR concentration 270 nM) | 0.245 |
| TCATATAGCTAAAAGGTGAAAGTCGGTGTGGTAA | RARa homodimer (NR concentration 270 nM) | 0.703 |
| CCTACTGGGCCAAAAAGGACATTGATGCCGATAA | RARa homodimer (NR concentration 270 nM) | 0.526 |
| CGTCGAAGGTCAGCAGGTCAGTGAAAGCGACGTG | RARa homodimer (NR concentration 270 nM) | 1.59 |

====

- System: FXR:RXRa (NR concentration 270 nM, RXRa partner concentration 90 nM)
- Assay notes: PBM binding z-score (relative to random genomic background probes); higher = stronger binding; sequences stand for … in GC…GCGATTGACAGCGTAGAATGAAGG
Recorded PBM binding z-score values for a group of sequences are listed next.
Reported metric: PBM binding z-score

| Seq text | Value measured |
| --- | --- |
| TCGAGTAAGTTAGTCGGGGCATTCAGCCAACATA | -1.52 |
| ATCACTAGGTAAAGATAGTTCAGTGAATGCAAAT | 0.213 |
| CCGAGCAGGCCAGGGTCACTCAAGCATTTCGCTT | 2.23 |
| CGTCAAAGTTCAAGGTAACGTATCAGAAAGCAGC | 5.57 |
| CAAACTAGGCCAAGAGGTCAAAGTCCGCTTCCCG | 5.17 |
| CCTTACGGGTCACTGACAGGTTTTAGCATTTGGA | 5.38 |

====

- System: PPARg DBDmut IVT, anti-PPARg (DBD mutation: PPARg1 K132A/R137A, NR concentration 270 nM)
- Assay notes: PBM binding z-score (relative to random genomic background probes); higher = stronger binding; sequences stand for … in GC…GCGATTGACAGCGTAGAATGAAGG
Rule: PBM binding z-score under 0.1 gives n, otherwise y.

| Seq text | Class label |
| --- | --- |
| TAGGCTAGGTCATGCGGGCCAGTATAGTGTCGGC | y |
| TAGACTAGGTCATGCGGGCCAGTATAGTGTCGGC | y |
| AGTCAAAGTTCAGGGCGAGGTAACGTAAAGCACG | y |
| TAACCTAGGTCATGGGCCAGTATACCACGCGAAC | y |
| CCTAGTTGGTGAGGAGGTCACACACCGGATATGA | y |
| GCTAGCAGGCCATTTGGGTCACTCTATGACGGGC | n |
| GGAACGAGGGCAGGTTGATAGCAGAGTTTGATGG | n |
| CCTTACGGGTGAAGGTTATAGCACGGGTGGTACG | n |
| CTCGAAAGGTCGGTTTAGGTGAGTATACGGATAA | y |
| ATATGTAGGTTAAGAGTCATTCAGGTTGGTTCGC | y |
| TCGAGTAGGTTAGGGGCATCCAGAATGGCGTCGA | n |
| ATCGAAAGGTTGAAGGTGAGTATACCCACCCGAA | y |
| ATATGTAGGTAAAGGGTCATTCAGGTTGGTTCGC | y |
| TGTCAAAGTTCAAAGGTAACTTAAGTATCCACAC | y |
| ATATGTAGGTTACATCCGGGTCATTCACGCTATG | y |
| AGAACGAGGGCAATGGGTTGATAGCACGGGTGGC | n |
| CCTGCTACGTCAATGGTCAGCTAAAGCAGCTCGC | n |
| ATCTCTAGGTAAAGTGCAGTGAAAGATCGATAGA | y |
| ACAGACAGGTGATGAAGGTAACGCAGGCTATCAT | n |
| CGTCCAAGGTCAGCAGGTCAGTGCAAGCGACGTG | n |
| TCAGACAGGTGAAGGTAGCTCAGGTACGCAGTCG | n |
| CCTATTAGTTGACCATAAGGGCAACCCAAGCTCG | y |
| CCTACTCGGCCATCAGGTCATTGATATCAACGTT | n |
| ATCTCTAGGTAAAAGTTCTGTGAATCCCGAGGAT | y |
| TCATATAGGTAAAGAGGTGAAAGTCCGTAAGTTA | y |
| TATACAGGGTCAAAGGCCATAGTACGAATGTCGA | y |
| CCTACTGGGCCAAAGGTCATTGCTTCCAATGCTC | y |
| CTCGAAAGGTCGGTTGAGGTGAGTATCCGGATAA | n |
| TCGAGTAGGTTACCAATGGGGCATTCGGCTTTCT | n |
| CCTACTGGGCCACGAAAGGTCATTGACTCAGTGA | n |
| CCGAGTAGGTAATGGGGCATTCAGGCAACGGTGA | n |
| ACAGAAAGGTGATGAAGGTAACTCAGGCTATCAT | y |
| ACTATTAGTTGAGACGAGGGCAACTGATAGGTTG | y |
| ATATGTAGGTTACATCCGTGTCATTCAGGCTATG | y |
| ATACCAAGGTGATCGTGAGGTCGATGATACTAAC | y |
| CGTCCAGGGTCAATGCTAGGTCAGTGAAAGCATT | n |
| CCGACTGGGGCATAAGGTTACCATAAGCCAGCCC | n |
| AGACTGAGGTTATTAAGATCAGGGAATTGCGGTC | n |
| ATCTCTAGGTAACAAGATCAGTGAAAGAGAGGAC | y |
| TCATAGAGGTAATACAGGTGAAAGTCGGCATCTA | y |
| CCTTCTAGGTCATGGTCAGCTAATCTACAGTATG | y |
| GGAACGAGGGCATTCGAGTAGATAGCATGGCGAT | n |
| GCTTGTAGATCAAGCTTAAGAAAGACTAAGCTAA | n |
| TCGAGTAGGTTAGTCGGGGAATTCAGCCAACATA | n |
| ATCTCTAGGTAAAGTTCAGTAAAAGATCGATAGA | y |
| TCTATTAGTTGAATAGGGCAACCGAAACAGCGGA | y |
| CGTCCAAGGTCAGAGAGGTGAGTGAATGCCGAGT | n |
| CGTCCAAGGTCAATGCTAAGTCAGTGAAAGCATT | n |
| TCGAGTATGTTACCAATGGGGCATTCAGCTTTCT | n |
| CAGCCTAGGTCAGGGCTAGTATAGGAGGAACGTT | n |
| CGAACTAGGTCATTGAGAGGACAGTGAATAGTAA | y |

====

- Tested on: RARa homodimer (NR concentration 270 nM)
- Assay notes: PBM binding z-score (relative to random genomic background probes); higher = stronger binding; sequences stand for … in GC…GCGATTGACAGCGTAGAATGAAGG
Binary call on PBM binding z-score: Criterion met from 0.2 upward, Criterion not met beneath that.

| Seq text | Target of assay | Class label |
| --- | --- | --- |
| TTACCAACGTGAGCTGAGGTCGTTGATCCAACTC | RARa homodimer (NR concentration 270 nM) | Criterion not met |
| TCGAGTAGGTTACTCGGGGCATTCAGCCAACATA | RARa homodimer (NR concentration 270 nM) | Criterion not met |
| CAAACTAGGTCGAGGTCAAAGTCGGTTTGTGCCA | RARa homodimer (NR concentration 270 nM) | Criterion met |
| CGTCAAAGTTCAACTAAGGTAACATAAAGCACGC | RARa homodimer (NR concentration 270 nM) | Criterion met |
| CCGACTGGGGCAGAAAGGTGACCATACCATCCGG | RARa homodimer (NR concentration 270 nM) | Criterion not met |
| ACTCGGAGGACAATGGTCAGAGCTACGCCAGTGA | RARa homodimer (NR concentration 270 nM) | Criterion not met |
| TCATATAGGAAAAAGGTGAAAGTCGGTGTGGTAA | RARa homodimer (NR concentration 270 nM) | Criterion met |
| ACAATTAGTTGACTTAGGGCAACCGATACGACGC | RARa homodimer (NR concentration 270 nM) | Criterion met |
| CCTTACGGGTCACTCCAGGTTATGGCATCGGAGT | RARa homodimer (NR concentration 270 nM) | Criterion met |
| GCTGCTAGGTCAGGTTGCTCAGCTAACGGGTACG | RARa homodimer (NR concentration 270 nM) | Criterion not met |
| ACAGACAGGTGAGTGATGGTAACTCAGCTGGACG | RARa homodimer (NR concentration 270 nM) | Criterion met |
